- measurement.protocol: protease stability score; higher = more stable; yeast display proteolysis, trypsin and chymotrypsin;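 note: log10 excess protease needed over predicted unfolded state with 0 meaning unfolded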
Category | rule: reported protease stability score within range, see class A (below 0.02), class B (0.02 to below 0.7), class C (0.7 or more)

Qu. Dear colleague, I would appreciate it if you could identify the bin for `DTHDEKHVAQNVVDALRRNDPDQLRRMMDPNVHFEVGDKTIHGREDAARQLKEIKKNVDHFQVDDVTMSNGRVHAIIRVEINGQERRNVVQADVKNGHVKFQRIKDQ` and reply at your convenience.
Ans. class A

Qu. Dear colleague, I would appreciate it if you could identify the bin for `DEENSRILKELLRAIRRGDEERAKELVDPNAKFQVGNKNVHGRDHWAQELRKEKEKIRFDMHIKHVKVDNGKIKVDLRVQVDVDGRPVTNRVKLTVELHNGRLTHLRVEMDEDQERKLKK` and reply at your convenience.
Ans. class B

Qu. Dear colleague, I would appreciate it if you could identify the bin for `DEDTLKHMAREFVKALQTGDEDRLSEMVDENVRIDYGDKTVSGRKKAQEYAHRVRKQVDHIEVREVEVHGNKVEIDAVLVFNGQRLTVTFRIIMRNGKVQHIQLEVTDPDKQRKAEQ` and reply at your convenience.
Ans. class C

Qu. Dear colleague, I would appreciate it if you could identify the bin for `DERLADQVVELLHVMEDGDEKRVDQLIDKDVKFKVGDKDYHGDETARRRAKNLRDQMRIEYDLKDYRTNGDNAILNAEVRMNINGQPYSHHVKIVVRARNGKVKHLQMSFDEETQKKVDQ` and reply at your convenience.
Ans. class C

Qu. Dear colleague, I would appreciate it if you could identify the bin for `DEENVEAAHRFFEALNTNNPDELVKQFDPNARFRYGDTDIHGREHFRKWVKDQLDQIRFTLTSMTANVHNGKVRIELRFIKHHNGRPRDVNQEVRADVHNGKIKNLSVSDRG` and reply at your convenience.
Ans. class B

Qu. Dear colleague, I would appreciate it if you could identify the bin for `DEEDVRRMENVVRENNEHRLAQLADKNARMTVGDQTYHGKEKIAEAIRRVQKQVDHMEIERLTIHGDKIRADVTMVVNGQRFRYVVVFNVKNGRLKERSVNFRDERDSEEFKKIEK` and reply at your convenience.
Ans. class B

Qu. Dear colleague, I would appreciate it if you could identify the bin for `DEEKNFREWLHKFNEANESNDEEELKHQMDKNAHVTYGDKTIHGRDTVAEHLANKNRRADNIEFRIRHVSVENGQLQFRIDWNLRHNGENDRFEIKVRADVHNGNVQLQEASVD` and reply at your convenience.
Ans. class B

Qu. Dear colleague, I would appreciate it if you could identify the bin for `DEEALKKLQDILRRNDQDKMNKMIDKDVRVVIGEHEYRGKRNVQEALKREYEHADRFEVKHIEDHGDKLHVDVVLRVDGRDIRFVVVIDVHNGNIRNVKVDFTDEDTQRDFQRQLD` and reply at your convenience.
Ans. class C

Qu. Dear colleague, I would appreciate it if you could identify the bin for `DEHAKRVVEKAWKALDTGDPKTMEDMLDPNARQRYGDTSVHGRENIIHKLEKDSKEIRFKIKIDNITVHGDKIDVRMLVTERRDGQPRQTHRVATFRIHNGRLEEADFQKDG` and reply at your convenience.
Ans. class A

Qu. Dear colleague, I would appreciate it if you could identify the bin for `DHTKIARRLMEDLTDARRHNDPHHVKNLLDKDVKIRVGDKSVDGEEEATKQMIERQRRADHIEMRIKSVSTHNGQLRIIFDVREVHNGQEHTDREEVQFDNENGKVRMVNVQQK` and reply at your convenience.
Ans. class A

###

- measurement.protocol: protease stability score; higher = more stable; yeast display proteolysis, trypsin and chymotrypsin;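 note: log10 excess protease needed over predicted unfolded state with 0 meaning unfolded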
What protease stability score was measured for each of the following?

// recorded protease stability score for `DEEEMDRFIKHLERNDEDRWVQMADPNVKVRIGDNTLRGREQLKKWFHRFRKRVDTYSIDSYTVHGEKIKVRAKFQVDGRNVQFSFVVVIKNGRIKSATYEARNEEDQEQDKRDLE` : 1.5

// recorded protease stability score for `DEDSQAHEIAQHFIELLKHNNEDDMKKYIDPNAKAQYGDKRVHGRNHVIRTFKEMRDKVDHISVEIKSIKANGEKISADMVVTFNVNGKNETVQYVLIFQVQGERVRVTHVKID` : 0.796

// recorded protease stability score for `DEEKLHTIAKKAADIVQSGDEEKIIRLADPNAEMRIGDQELHGMDDAKRVLHEFMKRVDHVSVKTWHVQGNRIRLDVKFEVNGRDIRVELDITIENGEIDSMEFDPRARDAQKT` : 0.183

// recorded protease stability score for `DTSDNKRAKELLDVLRTGDKEDFKNLVDENVRVVVGDKEVHGRDEIAEDISRKKKEMRYTFKVEDLQDHNGHVKVDMRQSSEHNGSPHHSDAKVTVNFENGKVHDVVLRDDG` : -0.04

// recorded protease stability score for `DQQTDAKEHAETVNKVLTHNDPNKLRELFDEDARMRVGDKEYRGQEQVDHVLKEIADRVDHVDVKLESVSLENGSVKVVIRAVFDDNGRKNDVHIDLVAVIDNGDLYIKEIRFE` : 0.301

// recorded protease stability score for `DEDTARKQVQIYKDNDPNQLVRMFDENARLKVGDQTVDGREELERWVKRLRTRVDRYSYKNVDIQGERVVIDMVMVVDGKQVEFVVEFVVEDGRIKNAKVQARNKDEETKLQEAIG` : 1.25

###

What protease stability score was measured for each of the following?
- measurement.protocol: protease stability score; higher = more stable; yeast display proteolysis, trypsin and chymotrypsin;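 note: log10 excess protease needed over predicted unfolded state with 0 meaning unfolded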
Quick one: just the number, no unit, thanks!

// recorded protease stability score for `DDEEARHRLSRISKMLEENDPQRFSNQADEDVRVDIGDKEIHGKEEVARQLTEWRKQVDHVRVTSVEVQGDHASVQFRADVNGRHRVLTLYMKWTNGRVKEMHIKEG` : 0.857

// recorded protease stability score for `ERELVSIAQDILHALEHGDPQQFRDLVDPNAKFKVGDHEWHGRESAANEYAKEQRKMNNKYDRVTWDNNGDHIRARFNWVNHSNGEPKRKQATQELVLHNGRLVSMKQDDTQ` : -0.052

// recorded protease stability score for `DDDQSRKLKKLFDNNNWDTLQDNADKNANIEVGNKELHGREDAEQLSEKFRDQVDHLTIESIDISGDRVIVTFVVNVNGQRVKYRVVVEAHNGRVKRMRFEFTNPEERKQYDEQLG` : 0.899

// recorded protease stability score for `DEKREKDVAENFNTILENNDPDNLRKQAPPEAHAVIGDTRYRGMETFVTIMKKMWDEVDHFTVDDYQVQNGRVTIQAHVQVNGRQVTLHLEMIIDNGHITHIRMDPRQYRQFEG` : -0.434

// recorded protease stability score for `DEEKVAQKFAEEMNKVWEQGDPDRMAELADEDVRMKYGDKEIHGRDDVEDHLRTVFKEVDSASIDVKRVSNHNGRVDIKASITMRDNGSHSNTNIDIKAEVSGDKVKLKEQHHQ` : -0.067

// recorded protease stability score for `DEEAVKTLEHMFEAVRDGNPDEVKKQVDPNVKIEIGDKTYKGKDQWAQDVETKKDEMRFTYHSIEFKNEPNRVKISIDRTETHNGQPRRHHVDMEARVHNGVIVRMKAKESG` : -0.124

// recorded protease stability score for `DKELQDTAHKLAKNGDFSRLAELADEDVQIKIGDERVTGREEQKKLVEVQQRRIDHVEVDRVHAQGNKVSVNMTIVVDGESRTVNIDITMHNGRVKEIVYNATSEEARKEMTKWYR` : -0.362

// recorded protease stability score for `DDEEMTQLLRRILKALEKNDEDLYNQNFDEDVKINVGDKRYNGREDASKLMKTWNKQIDHFQVNDYTVSGEQLEMNITFQVDGRNVSFNVTATAKNGRVKEQTFDPSAMRKARS` : -0.077

// recorded protease stability score for `DEEEAKEMMEKWMKIVEKGDSDKAQKIYKPNVVWENVDKKTQGVKQVKEMVKRIKDQGMEFQVRRAEVEGNTVEVQYDVRIGNTTVTFKVQVKAEGGRIDEVRVELDETAVKQLKKG` : 0.31

// recorded protease stability score for `DERENKKHAEQLARVFQTGDHDQLRKMMPPDAKAQVGDKEYQGRDSVLHDIKRFLRQADSITIQSVTVQGNTLNIHIQLDINGKDFQAVIEVEMHNGKVVRIVIKES` : -0.044

// recorded protease stability score for `DSEERKTVARELNKVLKENDEEKFKRLADENVKLHYGDKEFHGRERAEQVLREWKKRIDHLEVNHVNNTGDRIVIHATVNVNGVNVHLEFNARLDNGHVTSVRLQYRDEEDRKRLES` : 0.814

###

- measurement.protocol: protease stability score; higher = more stable; yeast display proteolysis, trypsin and chymotrypsin;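 note: log10 excess protease needed over predicted unfolded state with 0 meaning unfolded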
quantity: protease stability score
Quick one: just the number, no unit, thanks!

// recorded protease stability score for `DDHKNRERAKEIAKQFQHNNPEDLRKMFDKDARLDLGSQQYHGREDVNRALSHLSKRIDHYEIKDIKVKGDNIDIQAVVTVNGRRYSLKIILRFSNGKAKEVHFHVS` : 0.997

// recorded protease stability score for `DESAIQHWRKMLEAVETGDEKKIQKQADPNAKFRVGDKVIHGREKYAKQKVQEARQIRVEIDIKDWENRPGRVNLDADARYEINGQPVTFRLEVEMRMHNGHFVSVDVQFDEEKWEKLHK` : 0.037

// recorded protease stability score for `DDEEAKRVAEEVIKAMQKGDEEHFDRLVDPDVRLNVGDKVLHGRRDLRRWVKEVADKADHVQVDDVKVNNGTAKIRFRIDINGQTEEVIMHIHVTNGEVKSMRVQRT` : 1.43

// recorded protease stability score for `DNEEHKVLEELIRAIQEGNEKDIKRLIDPNARVNVGDKTYHGREQIVKWWFDLQQELEFEIDIKRWHVNNGQIRADIKYVRNNNGKPESFRADMQVTASNGKFKSVSVHETK` : 1.43

// recorded protease stability score for `DEDAARKIRKLVEDWANGDPQSVADQMDENAEVHIGDQTLHGRDHVRKFVEKLSEQIRISVQSVTVRASGNHITAHVQMEVDVNGHPDTITFRIHADVDNGRIKSMEYRMDEQEQRKRTS` : 0.346

// recorded protease stability score for `DDTAMRVYQEIVKALQTGDPDKVRNNFDENVEYHVGDTKVHGRDEALERIKKRMDEIRVEIQLQKVETQGDKVIVRARYVNETNGKPKQSNNNIIFKVKNGKMTHMQEREDS` : -0.045
